For each of the molecules below, state its pEC50.
Tested on: HT-22 cells
EXPERIMENT: in vitro protection assay, glutamate-induced oxidative stress HT-22 cell model (Calcein AM cell survival)
CONDITION_INFO: read-out: Potency (EC50 ± SEM); Table 2, receptor target screen
pEC50: −log10 of the molar value.

Some solved cases for reference:
> print(dat)
                                   molecule  property.measured  reported.value
1  CCN1CCC[C@H]1CNC(=O)c1c(O)c(Cl)cc(Cl)c1OC [S-(−)-Raclopride]              pEC50          < 6.00
2  OC1(c2ccc(Cl)cc2)CCN(Cc2c[nH]c3ccccc23)CC1 [L741626]              pEC50          < 6.00
3  Cc1cccc(C(=O)NCN2CCN(c3ccccc3C#N)CC2)c1 [PD168077]              pEC50          < 6.00
4  O=C(OCCN1CCOCC1)C1(c2ccccc2)CCCCC1 [PRE-084]              pEC50          < 6.00
5  Cc1c(C2CCN(CCc3ccccc3)CC2)noc1-c1ccc(Cl)cc1 [L741742]              pEC50            8.92
6  CCC(Oc1ccc(Cl)cc1)C(=O)OC1CC2CCC(C1)N2C (stereo not shown) [SM-21]              pEC50          < 6.00

Lookup: pEC50 lookup needed for CN1CCN(CCc2ccc(Cl)c(Cl)c2)CC1 [BD1063] , thanks.
Found: 8.23

Source listed as patent US20060106064A1.
